# Tested on: T. vaginalis ATCC 30001
# Assay name: Antianaerobic activity, MIC by standard broth dilution method (Table II)
# Format: cell-based
# Measurement parameters: Trichomonas vaginalis, ATCC30001, 24 h, Test 3; read-out: Minimal Inhibitory Concentration (MIC)
Counter-ions that a name gives are not always drawn.

{"Compound": "Cl.Clc1ccc(NN=C(Cn2ccnc2)c2ccccc2Cl)c(Cl)c1", "Target or test system": "T. vaginalis ATCC 30001", "MIC / µg/mL": 50}
{"Compound": "Cl.Clc1ccc(Cl)c(NN=C(Cn2ccnc2)c2ccccc2Cl)c1", "Target or test system": "T. vaginalis ATCC 30001", "MIC / µg/mL": 100}
{"Compound": "Cl.Clc1cccc(Cl)c1NN=C(Cn1ccnc1)c1ccc(Br)s1", "Target or test system": "T. vaginalis ATCC 30001", "MIC / µg/mL": 50}
{"Compound": "Cl.Clc1cc(Cl)c(NN=C(Cn2ccnc2)c2ccccc2Cl)c(Cl)c1", "Target or test system": "T. vaginalis ATCC 30001", "MIC / µg/mL": 50}
{"Compound": "Cl.Clc1cccc(Cl)c1NN=C(Cn1ccnc1)c1ccc(Br)cc1", "Target or test system": "T. vaginalis ATCC 30001", "MIC / µg/mL": 50}
{"Compound": "Cl.Clc1ccc(C(Cn2ccnc2)=NNc2ccccc2Br)cc1", "Target or test system": "T. vaginalis ATCC 30001", "MIC / µg/mL": 75}
{"Compound": "Clc1ccc(NN=C(Cn2ccnc2)c2ccc(Cl)cc2Cl)c(Cl)c1 [HC-380, hydrochloride]", "Target or test system": "T. vaginalis ATCC 30001", "MIC / µg/mL": 25}
{"Compound": "COc1ccc(C(Cn2ccnc2)=NNc2cc(Cl)ccc2Cl)cc1.Cl", "Target or test system": "T. vaginalis ATCC 30001", "MIC / µg/mL": 50}
{"Compound": "Clc1ccc(NN=C(Cn2ccnc2)c2ccc(Cl)s2)c(Cl)c1 [HC-363, hydrochloride]", "Target or test system": "T. vaginalis ATCC 30001", "MIC / µg/mL": 50}
